endpoint label: melting point

Example compounds with recorded melting point:
In [3]: df
Out[3]:
                                   compound  endpoint_label  recorded_result
0  Cc1noc(C)c1CN1C(=O)C2(COc3cc4c(cc32)OCO4)c2ccccc21 (stereo not drawn)   melting point    165 to 167 °C
1  O=C1N(Cc2sc(C(F)(F)F)cc2O)c2ccccc2C12COc1cc3c(cc12)OCO3 (stereo not drawn)   melting point    225 to 227 °C
2  O=C1N(Cc2ccc(Cl)s2)c2ccc(F)cc2C12COc1cc3c(cc12)OCO3 (stereo not drawn)   melting point    142 to 144 °C
3  CCOC(=O)CN1C(=O)C2(COc3cc(F)c(F)cc32)c2c(Br)cccc21 (stereo not drawn)   melting point    133 to 134 °C
4  O=C1Nc2ccccc2C12COc1ccc(Br)cc12 (stereo not drawn)   melting point    225 to 228 °C
5  O=C1N(Cc2ccc(=O)[nH]c2)c2ccccc2C12COc1cc3c(cc12)OCO3 (stereo not drawn)   melting point    247 to 250 °C

Pending compound:
Ask: What does the record list as melting point for Cc1ccc(CN2C(=O)C3(COc4cc5c(cc43)OCO5)c3ccccc32)o1 (stereo not drawn) ?
Result: 117 to 119 °C

Data provenance: patent US8466188B2
